Where do these numbers come from? They come from ChEMBL document CHEMBL1140049.

target: Cannabinoid receptor 1 (Homo sapiens, UniProt P21554); test: Antagonist activity at human CB1 receptor expressed in HEK293 cells assessed as inhibition of Eu-GTP binding
Sequence (P21554 whole entry): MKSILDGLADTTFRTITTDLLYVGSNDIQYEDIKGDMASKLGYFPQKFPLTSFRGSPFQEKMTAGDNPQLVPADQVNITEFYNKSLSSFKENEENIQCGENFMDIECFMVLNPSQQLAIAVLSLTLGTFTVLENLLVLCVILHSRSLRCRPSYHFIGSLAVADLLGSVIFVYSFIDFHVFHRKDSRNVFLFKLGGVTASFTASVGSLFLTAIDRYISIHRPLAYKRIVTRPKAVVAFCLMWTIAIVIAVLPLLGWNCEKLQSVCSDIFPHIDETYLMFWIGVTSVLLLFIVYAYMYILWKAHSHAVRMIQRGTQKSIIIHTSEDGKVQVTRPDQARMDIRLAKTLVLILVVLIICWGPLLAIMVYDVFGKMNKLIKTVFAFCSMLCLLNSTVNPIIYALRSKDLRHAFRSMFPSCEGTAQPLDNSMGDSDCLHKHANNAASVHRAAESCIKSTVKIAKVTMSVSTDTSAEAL
ENDPOINT: EC50 (nM)

Sample answers from the record:
MOLECULE: Cc1c(C(=O)NN2CCCCC2)nn(-c2ccc(Cl)cc2Cl)c1-c1ccc(C#CC(C)(C)C)s1
SYSTEM: Cannabinoid receptor 1 (Homo sapiens, UniProt P21554)
EC50 [nM]: 28.9
//
MOLECULE: CCOCC#Cc1ccc(-c2c(C)c(C(=O)NN3CCCCC3)nn2-c2ccc(Cl)cc2Cl)s1
SYSTEM: Cannabinoid receptor 1 (Homo sapiens, UniProt P21554)
EC50 [nM]: 25.5
//
MOLECULE: CCC#Cc1ccc(-c2c(C)c(C(=O)NN3CCCCCC3)nn2-c2ccc(Cl)cc2Cl)s1
SYSTEM: Cannabinoid receptor 1 (Homo sapiens, UniProt P21554)
EC50 [nM]: 36.4

A = Cc1c(C(=O)NN2CCCCC2)nn(-c2ccc(Cl)cc2Cl)c1-c1ccc(C#CCCc2ccccc2)s1
B = CCC#Cc1ccc(-c2c(C)c(C(=O)NN3CC4CCCC4C3)nn2-c2ccc(Cl)cc2Cl)s1 (stereo not drawn)
Problem: Of A and B , whose reported EC50 is the larger number? Respond using the label that marks the chosen record.
Result: B
